Overview of reported IC50 across a group of molecules:
assayed.system: Bovine lysyl oxidase (LOX) (Bos taurus)
Sequence (P33072 170-418): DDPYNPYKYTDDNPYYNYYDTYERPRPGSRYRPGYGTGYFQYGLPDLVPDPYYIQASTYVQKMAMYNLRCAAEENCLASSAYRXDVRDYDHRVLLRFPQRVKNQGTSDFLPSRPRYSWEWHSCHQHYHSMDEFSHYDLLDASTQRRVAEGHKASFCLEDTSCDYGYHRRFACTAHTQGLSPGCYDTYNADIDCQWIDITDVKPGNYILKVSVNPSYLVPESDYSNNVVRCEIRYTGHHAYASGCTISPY
measurement.kind: IC50

* CS(=O)(=O)N1CCN(C(=O)[C@H]2C[C@@H](N3CCCCC3)CN(S(=O)(=O)c3cc(CN)ccn3)C2)CC1 (racemic) [Example 149, 2,2,2-trifluoroacetate] | > 30 µM
* NCc1ccnc(S(=O)(=O)N2C[C@@H](C(=O)N3CCOCC3)C[C@@H](c3ccccc3)C2)c1 [Example 133A, 2,2,2-trifluoroacetate] | 1 to 30 µM
* NCc1ccc(S(=O)(=O)N2C[C@@H](C(=O)N3CCOCC3)C[C@@H](c3ccccc3)C2)s1 [Example 13A] | ≤ 0.5 µM
* NCc1ccnc(S(=O)(=O)N2C[C@@H](C(=O)N3CCS(=O)(=O)CC3)C[C@@H](c3ccccc3)C2)c1 (racemic) [Example 134, 2,2,2-trifluoroacetate] | 1 to 30 µM
* CS(=O)(=O)N1C[C@@H](c2ccccc2)C[C@@H](S(=O)(=O)c2ccc(CN)cc2)C1 (racemic) [Example 26, 2,2,2-trifluoroacetate] | 1 to 30 µM
* NCc1cncc(S(=O)(=O)N2C[C@@H](C(=O)N3CCS(=O)(=O)CC3)C[C@@H](c3ccccc3)C2)c1 (racemic) [Example 132, 2,2,2-trifluoroacetate] | > 30 µM
* CS(=O)(=O)N1CCN(C(=O)[C@@H]2C[C@@H](c3ccccc3)CN(S(=O)(=O)c3cccc(CN)n3)C2)CC1 (racemic) [Example 116T, 2,2,2-trifluoroacetate] | > 30 µM
* NCc1cccc(S(=O)(=O)[C@H]2C[C@@H](C(=O)N3CCS(=O)(=O)CC3)CN(C3CCCCC3)C2)c1 (racemic) [Example 143, 2,2,2-trifluoroacetate] | > 30 µM
* CN1CCN(C(=O)[C@H]2C[C@@H](N3CCCCC3)CN(S(=O)(=O)c3cc(CN)ccn3)C2)CC1 (racemic) [Example 150, 2,2,2-trifluoroacetate] | 1 to 30 µM

---

protocol.description: Permeability study in Caco-2 cell line
Assay type: in vitro ADME
test.conditions: human; Caco-2, basolateral to apical, 5 μM, 2 hours, pH 7.4
Overview of reported Papp B→A at 2 h, 5 μM across a group of molecules:
measurement.kind: Papp B→A at 2 h, 5 μM (×10⁻⁶ cm/s)

- CN(C)C(=O)N1C[C@@H](c2ccccc2)C[C@@H](S(=O)(=O)c2cccc(CN)c2)C1.O=C(O)C(F)(F)F (racemic) [Example 74]: 33.3
- NCc1ccc(S(=O)(=O)N2C[C@H](C(=O)N3CCOCC3)C[C@H](c3ccccc3)C2)s1 [Example 13B]: 28.5
- CS(=O)(=O)N1CCN(C(=O)[C@H]2C[C@@H](c3ccccc3F)CN(S(=O)(=O)c3ccc(CN)s3)C2)CC1.O=C(O)C(F)(F)F (racemic) [Example 91]: 15.6

---

assayed.system: Recombinant human LOXL3 (lysyl oxidase like 3) (Homo sapiens, UniProt P58215)
Sequence (P58215 26-753): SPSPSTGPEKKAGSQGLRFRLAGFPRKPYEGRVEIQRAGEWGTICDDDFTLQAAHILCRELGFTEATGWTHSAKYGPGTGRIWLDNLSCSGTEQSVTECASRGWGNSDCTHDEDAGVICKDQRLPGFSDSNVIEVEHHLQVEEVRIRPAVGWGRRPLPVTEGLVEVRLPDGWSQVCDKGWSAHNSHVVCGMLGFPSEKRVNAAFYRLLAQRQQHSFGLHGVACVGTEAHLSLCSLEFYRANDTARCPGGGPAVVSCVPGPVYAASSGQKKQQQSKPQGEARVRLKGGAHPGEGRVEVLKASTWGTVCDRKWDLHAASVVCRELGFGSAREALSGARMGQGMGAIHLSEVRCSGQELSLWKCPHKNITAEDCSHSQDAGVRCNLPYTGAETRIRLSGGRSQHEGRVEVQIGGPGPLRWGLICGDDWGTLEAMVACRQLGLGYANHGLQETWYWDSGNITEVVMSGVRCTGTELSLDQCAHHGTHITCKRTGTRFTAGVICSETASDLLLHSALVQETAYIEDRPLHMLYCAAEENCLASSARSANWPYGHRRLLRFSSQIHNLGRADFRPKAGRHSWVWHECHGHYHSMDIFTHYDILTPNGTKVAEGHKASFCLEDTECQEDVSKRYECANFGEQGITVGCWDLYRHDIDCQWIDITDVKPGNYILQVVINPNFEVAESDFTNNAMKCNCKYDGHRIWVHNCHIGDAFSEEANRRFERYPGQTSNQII
protocol.description: LOXL3 inhibition assay (fluorometric, cadaverine/Amplex Red/HRP)
test.conditions: IC50 class; recombinant human LOXL3, cadaverine substrate; read-out: Activity Range LOXL3
Procedure: The ability of compounds to inhibit one or more of the lysyl oxidases LOXL2 and/or LOXL3 was determined using a fluorometric assay. […] Hydrogen peroxide is in turn detected using a red fluorescence substrate for HRP-coupled reactions (Amplex Red Enzyme Assays, Thermo Scientific Fisher). This leads to increase in fluorescence that can be easily detected at Ex/Em=540/590 nm in a fluorescence microplate reader. […]
measurement.kind: IC50

* NCc1cccc(S(=O)(=O)N2C[C@H](C(=O)N3CCS(=O)(=O)CC3)C[C@@H](c3ccccc3)C2)n1 (racemic) [Example 115T, 2,2,2-trifluoroacetate] | > 30000 nM
* CN(C)C(=O)N1C[C@@H](c2ccccc2)C[C@@H](S(=O)(=O)c2cccc(CN)c2)C1.O=C(O)C(F)(F)F (racemic) [Example 74, 2,2,2-trifluoroacetate] | 1000 to 30000 nM
* CS(=O)(=O)[C@H]1C[C@@H](S(=O)(=O)c2cccc(CN)c2)CN(c2ccccc2)C1 (racemic) | 1000 to 30000 nM
* NCc1ccnc(S(=O)(=O)N2C[C@@H](C(=O)N3CCOCC3)C[C@@H](c3ccccc3)C2)c1 (relative stereo) [Example 133, 2,2,2-trifluoroacetate] | ≤ 500 nM
* NCc1ccnc(S(=O)(=O)N2C[C@@H](C(=O)N3CCOCC3)C[C@@H](c3ccccc3)C2)c1 [Example 133A, 2,2,2-trifluoroacetate] | 500 to 1000 nM
* NCc1ccnc(S(=O)(=O)N2C[C@@H](C(=O)N3CCOCC3)C[C@@H](C3CCCCC3)C2)c1 (racemic) [Example 145, 2,2,2-trifluoroacetate] | 500 to 1000 nM
* NCc1ccnc(S(=O)(=O)N2C[C@@H](C(=O)N3CCS(=O)(=O)CC3)C[C@@H](C3CCCCC3)C2)c1.O=C(O)C(F)(F)F (racemic) [Example 146, 2,2,2-trifluoroacetate] | ≤ 500 nM
* CN(C)C(=O)[C@H]1C[C@@H](C2CCCCC2)CN(S(=O)(=O)c2cc(CN)ccn2)C1 (racemic) [Example 144, 2,2,2-trifluoroacetate] | ≤ 500 nM
* NCc1cccc(S(=O)(=O)N2C[C@@H](C(=O)N3CCS(=O)(=O)CC3)C[C@@H](c3ccccc3)C2)n1 (racemic) [Example 115, 2,2,2-trifluoroacetate] | > 30000 nM
* NCc1cccc(S(=O)(=O)N2C[C@H](C(=O)N3CCOCC3)C[C@@H](c3ccccc3)C2)n1 (racemic) [Example 114T, 2,2,2-trifluoroacetate] | > 30000 nM
* NCc1cccc(S(=O)(=O)N2C[C@H](C(=O)N3CCS(=O)(=O)CC3)C[C@@H](c3ccccc3)C2)c1 (racemic) [Example 85, 2,2,2-trifluoroacetate] | 1000 to 30000 nM
* NCc1cccc(S(=O)(=O)N2C[C@@H](C(=O)N3CCS(=O)(=O)CC3)C[C@@H](C3CCCCC3)C2)c1 (racemic) | 1000 to 30000 nM
* NCc1ccnc(S(=O)(=O)N2C[C@H](C(=O)N3CCOCC3)C[C@H](c3ccccc3)C2)c1 [Example 133B, 2,2,2-trifluoroacetate] | ≤ 500 nM
* NCc1ccnc(S(=O)(=O)N2C[C@@H](C(=O)N3CCS(=O)(=O)CC3)C[C@@H](c3ccccc3)C2)c1 (racemic) [Example 134, 2,2,2-trifluoroacetate] | ≤ 500 nM

Ref: patent US20230310445A1
